# assay overview: Cytotoxicity against human 293T cells
# Type: cell-based
# assay conditions: HEK-293T cells
Recorded CC50 values for a group of compounds are listed next.
readout kind: CC50 (µM)

1) O=c1oc2ccccc2c2nn(CN3CCN(S(=O)(=O)c4ccc(Cl)c([N+](=O)[O-])c4)CC3)cc12	386
2) Cc1ccc(C)c(S(=O)(=O)N2CCN(Cn3cc4c(=O)oc5ccccc5c4n3)CC2)c1	397
3) O=c1oc2ccccc2c2nn(CN3CCN(S(=O)(=O)c4ccc(C(F)(F)F)cc4)CC3)cc12	335
4) CC(C)c1cc(C(C)C)c(S(=O)(=O)N2CCN(Cn3cc4c(=O)oc5ccccc5c4n3)CC2)c(C(C)C)c1	332
5) O=c1oc2ccccc2c2nn(CN3CCN(S(=O)(=O)c4ccc([N+](=O)[O-])cc4)CC3)cc12	347
6) O=c1oc2ccccc2c2nn(CN3CCN(S(=O)(=O)c4ccc(Cl)cc4)CC3)cc12	278
7) O=c1oc2ccccc2c2nn(CN3CCN(S(=O)(=O)c4ccccc4[N+](=O)[O-])CC3)cc12	372
8) O=c1oc2ccccc2c2nn(CN3CCN(S(=O)(=O)c4ccc(F)cc4)CC3)cc12	298
9) O=c1oc2ccccc2c2nn(CN3CCN(S(=O)(=O)c4ccc(Br)cc4)CC3)cc12	387

###

# target: Phosphatidylinositol 4,5-bisphosphate 3-kinase catalytic subunit delta isoform (Homo sapiens)
# Sequence (O00329 whole entry, canonical isoform): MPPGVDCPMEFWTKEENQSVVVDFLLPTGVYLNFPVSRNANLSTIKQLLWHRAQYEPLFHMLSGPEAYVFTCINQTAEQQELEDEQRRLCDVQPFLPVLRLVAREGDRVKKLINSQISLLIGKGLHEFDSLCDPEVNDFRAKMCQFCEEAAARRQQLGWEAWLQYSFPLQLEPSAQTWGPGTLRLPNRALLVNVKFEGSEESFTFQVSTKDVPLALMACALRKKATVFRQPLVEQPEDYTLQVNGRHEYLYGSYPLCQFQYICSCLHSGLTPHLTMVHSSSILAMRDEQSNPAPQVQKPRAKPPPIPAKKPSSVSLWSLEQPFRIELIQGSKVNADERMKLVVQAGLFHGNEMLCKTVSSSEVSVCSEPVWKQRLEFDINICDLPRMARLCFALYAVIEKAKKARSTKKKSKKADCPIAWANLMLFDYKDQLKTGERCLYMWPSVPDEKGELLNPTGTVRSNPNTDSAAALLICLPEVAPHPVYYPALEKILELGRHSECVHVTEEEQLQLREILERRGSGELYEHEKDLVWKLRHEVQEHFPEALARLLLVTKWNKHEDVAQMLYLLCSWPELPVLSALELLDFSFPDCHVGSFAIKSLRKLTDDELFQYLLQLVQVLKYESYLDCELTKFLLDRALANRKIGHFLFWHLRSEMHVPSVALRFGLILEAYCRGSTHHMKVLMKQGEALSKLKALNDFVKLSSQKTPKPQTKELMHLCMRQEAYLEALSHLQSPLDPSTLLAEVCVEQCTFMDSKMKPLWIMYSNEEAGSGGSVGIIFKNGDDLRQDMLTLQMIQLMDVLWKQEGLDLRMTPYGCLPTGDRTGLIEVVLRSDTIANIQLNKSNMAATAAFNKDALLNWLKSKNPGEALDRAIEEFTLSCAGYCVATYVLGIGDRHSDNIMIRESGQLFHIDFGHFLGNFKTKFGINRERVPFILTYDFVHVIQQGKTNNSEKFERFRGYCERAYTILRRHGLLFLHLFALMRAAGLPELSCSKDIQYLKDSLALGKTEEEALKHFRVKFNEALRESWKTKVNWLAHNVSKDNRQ
# assay overview: Inhibition of PI3Kdelta (unknown origin) using diC8-PI(4,5)P2 as substrate incubated for 3 hrs in presence of ATP by fluorescence polarization assay
pIC50: −log10 of the molar value.
readout kind: pIC50

1) O=c1oc2ccccc2c2nn(CN3CCN(S(=O)(=O)c4ccc(Cl)cc4)CC3)cc12	5.33
2) O=c1oc2ccccc2c2nn(CN3CCN(S(=O)(=O)c4ccc(Cl)c([N+](=O)[O-])c4)CC3)cc12	6.92
3) O=c1oc2ccccc2c2nn(CN3CCN(S(=O)(=O)c4ccc(Br)cc4)CC3)cc12	5.03
4) O=c1oc2ccccc2c2nn(CN3CCN(S(=O)(=O)c4ccc([N+](=O)[O-])cc4)CC3)cc12	5.26

###

# target: Phosphatidylinositol 4,5-bisphosphate 3-kinase catalytic subunit gamma isoform (Homo sapiens)
# Sequence (P48736 whole entry, canonical isoform): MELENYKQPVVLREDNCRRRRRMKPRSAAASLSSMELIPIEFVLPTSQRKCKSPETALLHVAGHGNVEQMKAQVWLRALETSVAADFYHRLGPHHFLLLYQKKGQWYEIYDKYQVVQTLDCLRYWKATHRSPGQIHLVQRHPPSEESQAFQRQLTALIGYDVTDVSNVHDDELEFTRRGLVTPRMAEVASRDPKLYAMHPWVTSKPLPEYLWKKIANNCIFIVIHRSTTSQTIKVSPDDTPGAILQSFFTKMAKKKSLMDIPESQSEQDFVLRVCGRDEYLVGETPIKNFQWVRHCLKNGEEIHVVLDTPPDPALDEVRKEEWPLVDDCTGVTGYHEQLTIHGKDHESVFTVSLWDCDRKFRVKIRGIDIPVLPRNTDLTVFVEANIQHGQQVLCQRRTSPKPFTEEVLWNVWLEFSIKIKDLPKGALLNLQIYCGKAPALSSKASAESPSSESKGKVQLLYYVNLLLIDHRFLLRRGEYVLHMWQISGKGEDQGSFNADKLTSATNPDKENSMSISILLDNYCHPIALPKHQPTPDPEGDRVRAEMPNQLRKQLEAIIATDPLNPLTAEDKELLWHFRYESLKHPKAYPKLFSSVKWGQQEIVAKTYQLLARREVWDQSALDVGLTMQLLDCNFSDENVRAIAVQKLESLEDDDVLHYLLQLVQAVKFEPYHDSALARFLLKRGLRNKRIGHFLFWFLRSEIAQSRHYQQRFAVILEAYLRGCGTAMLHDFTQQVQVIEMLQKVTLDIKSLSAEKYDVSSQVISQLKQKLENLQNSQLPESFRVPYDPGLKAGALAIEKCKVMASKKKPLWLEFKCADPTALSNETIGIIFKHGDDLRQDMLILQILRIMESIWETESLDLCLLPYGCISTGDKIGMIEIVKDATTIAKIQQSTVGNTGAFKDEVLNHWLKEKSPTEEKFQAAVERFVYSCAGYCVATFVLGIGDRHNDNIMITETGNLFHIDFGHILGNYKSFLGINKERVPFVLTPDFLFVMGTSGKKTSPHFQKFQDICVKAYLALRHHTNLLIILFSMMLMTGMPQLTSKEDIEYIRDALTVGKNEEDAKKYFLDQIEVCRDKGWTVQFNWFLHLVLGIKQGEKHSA
# assay overview: Inhibition of PI3Kgamma (unknown origin) using diC8-PI(4,5)P2 as substrate incubated for 3 hrs in presence of ATP by fluorescence polarization assay
Recorded IC50 values for a group of compounds are listed next.
readout kind: IC50 (nM)

1) O=c1oc2ccccc2c2nn(CN3CCN(S(=O)(=O)c4ccc(Cl)cc4)CC3)cc12	2650
2) O=c1oc2ccccc2c2nn(CN3CCN(S(=O)(=O)c4ccc(Cl)c([N+](=O)[O-])c4)CC3)cc12	81
3) O=c1oc2ccccc2c2nn(CN3CCN(S(=O)(=O)c4ccc([N+](=O)[O-])cc4)CC3)cc12	4010
4) CC(C)c1cc(C(C)C)c(S(=O)(=O)N2CCN(Cn3cc4c(=O)oc5ccccc5c4n3)CC2)c(C(C)C)c1	110
5) CC(C)(C)c1ccc(S(=O)(=O)N2CCN(Cn3cc4c(=O)oc5ccccc5c4n3)CC2)cc1	1320
6) O=c1oc2ccccc2c2nn(CN3CCN(S(=O)(=O)c4ccc(C(F)(F)F)cc4)CC3)cc12	2300
7) O=c1oc2ccccc2c2nn(CN3CCN(S(=O)(=O)c4ccccc4[N+](=O)[O-])CC3)cc12	8420
8) O=c1oc2ccccc2c2nn(CN3CCN(S(=O)(=O)c4cccc([N+](=O)[O-])c4)CC3)cc12	9340
9) Cc1cc(C)c(S(=O)(=O)N2CCN(Cn3cc4c(=O)oc5ccccc5c4n3)CC2)c(C)c1	140
10) O=c1oc2ccccc2c2nn(CN3CCN(S(=O)(=O)c4ccc(F)cc4)CC3)cc12	7510
11) Cc1ccc(C)c(S(=O)(=O)N2CCN(Cn3cc4c(=O)oc5ccccc5c4n3)CC2)c1	810
